Provenance of the data: ChEMBL document CHEMBL1201862

Overview of reported GI50 across a group of compounds:
# Tested on: Malme-3M
# assay.remarks: NCI tumour cell line growth inhibition, 48 h
Calls of active or inactive are those of the source. Cut-off read from the data, not from the text of the source: active = GI50 up to about 1.1 µM and inactive = higher.

Example entries and their recorded answers appear below.
O=C1c2ccccc2C(=O)N1CCCSc1ccccc1; > 100 µM (inactive)
C=C(C)C1CCC2=CC(CC3(C)OC3C3=CC(C(=O)OC)=C(C1)O3)OC2=O (stereo not given); > 100 µM (inactive)
Cc1nc(-[n+]2nc(-c3ccncc3)nn2-c2ccccc2)sc1C; > 100 µM (inactive)
COc1ccc(-c2cc(=O)c3c(OC)c(OC)c(OC)c(OC)c3o2)cc1 [TANGERETIN]; 84.1 µM (inactive)
CCOC(=O)c1ccc(NC(NC(=O)CC)(C(F)(F)F)C(F)(F)F)cc1; > 100 µM (inactive)
C[C@]12CCC3[C@@H](CC[C@@H]4c5nonc5CC[C@]34C)C1CCC(=O)N2 (stereo not given in full); > 100 µM (inactive)
c1cc2c(cc1NC1=NCCO1)CCCC2; 6.7 µM (inactive)
CC(=O)CC(O)(C(F)(F)Cl)C(F)(Cl)Cl (stereo not given); > 10 µM (inactive)

Entry under review: "Nc1cc(N)c(/N=N/c2cccc3c(S(=O)(=O)O)cccc23)cc1/N=N/c1cc([N+](=O)[O-])ccc1O" . Reported GI50?
17.3 µM (inactive)

Entry under review: "COc1cc(C(=O)C/C(CCC(=O)Nc2ccccc2[N+](=O)[O-])=N\NC(N)=O)ccc1O" . Reported GI50?
> 100 µM (inactive)

====

# Tested on: ACHN
# assay.remarks: NCI tumour cell line growth inhibition, 48 h
Calls of active or inactive are those of the source. No stated cut-off is given here; in the data, active = GI50 up to about 1.1 µM and inactive = higher.
Pick one: active, inactive

Known results for molecules:
NS(=O)(=O)c1ccc(/N=N/c2ncccc2O)cc1; inactive
CCOC(=O)/C=C1\CCCC12OCCO2; inactive
Nc1ccc(Cc2ccc(N)c(C(=O)O)c2)cc1C(=O)O; inactive
CCOC(=O)c1cc2nc3ccccc3c(=O)n2c2ccccc12; inactive
O=C(c1cccnc1)N1N=C(c2ccc3c(c2)OCO3)CC1(O)c1cc(F)c(Cl)cc1Cl (centres undefined); inactive

GET /call?item= "COc1ccc(/C=C/C(=O)c2c(-c3ccccc3)nn(C)c(=O)c2N2CCCC2)cc1" returns the recorded outcome of this test.
inactive

GET /call?item= "CCCc1c(OC)c(=O)c2c(OC)cc(OC)c3c4c(OC)cc(OC)c5c(=O)c(OC)c(CCC)c(c1c23)c54" returns the recorded outcome of this test.
inactive

GET /call?item= "COc1c(C=O)c2c(c(OC)c1OC)-c1ccc(OC)c(=O)cc1[C@@H](NC(C)=O)CC2" returns the recorded outcome of this test.
inactive

GET /call?item= "CN1CCN(CCCN2c3ccccc3Sc3ccc(C(F)(F)F)cc32)CC1" returns the recorded outcome of this test.
inactive

GET /call?item= Cc1c(/N=N/c2ccc(Cl)cc2)c(-c2ccccc2)n(C2OC(CO)C(O)C(O)C2O)c(=S)c1C#N (centres undefined) returns the recorded outcome of this test.
inactive

GET /call?item= "O=C(O)c1ccccn1" returns the recorded outcome of this test.
inactive

GET /call?item= "COC(=O)c1c(C)[n+]([O-])c2cc(Cl)c(Cl)cc2[n+]1[O-]" returns the recorded outcome of this test.
inactive

GET /call?item= COc1ccc(C2Cc3cc(OC)c(OC)c(OC)c3C2)cc1 (centres undefined) returns the recorded outcome of this test.
inactive
